Where do the numbers come from? From patent US12612410B2.

Entries and their IC50 values follow.
- TARGET_OR_TEST_SYSTEM: IRAK4 (Homo sapiens)
- Sequence (Q9NWZ3 whole entry): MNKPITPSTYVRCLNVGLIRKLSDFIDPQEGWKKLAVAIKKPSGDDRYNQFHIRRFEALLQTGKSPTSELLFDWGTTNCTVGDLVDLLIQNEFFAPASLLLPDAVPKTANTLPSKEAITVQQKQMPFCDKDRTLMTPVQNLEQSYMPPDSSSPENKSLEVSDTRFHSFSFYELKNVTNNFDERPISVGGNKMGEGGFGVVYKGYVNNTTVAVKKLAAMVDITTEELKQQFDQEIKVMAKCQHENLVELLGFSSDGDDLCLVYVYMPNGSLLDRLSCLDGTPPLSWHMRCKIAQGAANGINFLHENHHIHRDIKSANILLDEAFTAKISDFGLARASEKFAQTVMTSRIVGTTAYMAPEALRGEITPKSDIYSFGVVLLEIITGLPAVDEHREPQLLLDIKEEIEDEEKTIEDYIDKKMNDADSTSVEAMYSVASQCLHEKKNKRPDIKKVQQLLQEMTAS
- TEST_PROTOCOL: RBC HotSpot Kinase Assay, IRAK4
- Type: biochemical
- Set-up: purchased Reaction Biology (RBC), HotSpot kinase assay
- PARTICULARS: isolated kinase, 33P-ATP
I only need the number, in nM, no unit after it.

Please fill in: IC50 reported for "O=C1CCCN1c1cn2c(-c3cccc(N[C@H]4CNC[C@@H]4F)n3)cnc2cn1" = 5

Please fill in: IC50 reported for "FC(F)COc1cn2c(-c3cccc(N[C@H]4CNC[C@@H]4F)n3)cnc2cn1" = 1

Please fill in: IC50 reported for "CC(C)(C)c1cn2c(-c3cccc(N[C@@H]4CCCNC4)n3)cnc2cn1" = 1

Please fill in: IC50 reported for "O=S1(=O)CCCCN1c1cn2c(-c3nc(N[C@H]4CNC[C@@H]4F)c(F)cc3F)cnc2cn1" = 6

Please fill in: IC50 reported for "F[C@H]1CNC[C@@H]1Nc1cccc(-c2cnc3cnc(OCC(F)(F)F)cn23)n1" = 1

Please fill in: IC50 reported for "F[C@H]1CNC[C@@H]1Nc1cccc(-c2cnc3cnc(N4CCC(F)(F)C4)cn23)n1" = 4

Please fill in: IC50 reported for CC(O)(c1cn2c(-c3nc(N[C@H]4CNCC[C@@H]4F)c(F)cc3F)cnc2cn1)C(F)(F)F (single isomer, unassigned) [Compound 94] = 0.8

Please fill in: IC50 reported for "CC(C)(C)c1cn2c(-c3cc(F)cc(N[C@H]4CNCC[C@@H]4F)n3)cnc2cn1" = 17

Please fill in: IC50 reported for "FC(F)c1cn2c(-c3cccc(N[C@H]4CNCC[C@@H]4F)n3)cnc2cn1" = 1
